Target: human TRPA1 channel (Homo sapiens (Human), UniProt O75762)
Sequence (O75762 whole entry): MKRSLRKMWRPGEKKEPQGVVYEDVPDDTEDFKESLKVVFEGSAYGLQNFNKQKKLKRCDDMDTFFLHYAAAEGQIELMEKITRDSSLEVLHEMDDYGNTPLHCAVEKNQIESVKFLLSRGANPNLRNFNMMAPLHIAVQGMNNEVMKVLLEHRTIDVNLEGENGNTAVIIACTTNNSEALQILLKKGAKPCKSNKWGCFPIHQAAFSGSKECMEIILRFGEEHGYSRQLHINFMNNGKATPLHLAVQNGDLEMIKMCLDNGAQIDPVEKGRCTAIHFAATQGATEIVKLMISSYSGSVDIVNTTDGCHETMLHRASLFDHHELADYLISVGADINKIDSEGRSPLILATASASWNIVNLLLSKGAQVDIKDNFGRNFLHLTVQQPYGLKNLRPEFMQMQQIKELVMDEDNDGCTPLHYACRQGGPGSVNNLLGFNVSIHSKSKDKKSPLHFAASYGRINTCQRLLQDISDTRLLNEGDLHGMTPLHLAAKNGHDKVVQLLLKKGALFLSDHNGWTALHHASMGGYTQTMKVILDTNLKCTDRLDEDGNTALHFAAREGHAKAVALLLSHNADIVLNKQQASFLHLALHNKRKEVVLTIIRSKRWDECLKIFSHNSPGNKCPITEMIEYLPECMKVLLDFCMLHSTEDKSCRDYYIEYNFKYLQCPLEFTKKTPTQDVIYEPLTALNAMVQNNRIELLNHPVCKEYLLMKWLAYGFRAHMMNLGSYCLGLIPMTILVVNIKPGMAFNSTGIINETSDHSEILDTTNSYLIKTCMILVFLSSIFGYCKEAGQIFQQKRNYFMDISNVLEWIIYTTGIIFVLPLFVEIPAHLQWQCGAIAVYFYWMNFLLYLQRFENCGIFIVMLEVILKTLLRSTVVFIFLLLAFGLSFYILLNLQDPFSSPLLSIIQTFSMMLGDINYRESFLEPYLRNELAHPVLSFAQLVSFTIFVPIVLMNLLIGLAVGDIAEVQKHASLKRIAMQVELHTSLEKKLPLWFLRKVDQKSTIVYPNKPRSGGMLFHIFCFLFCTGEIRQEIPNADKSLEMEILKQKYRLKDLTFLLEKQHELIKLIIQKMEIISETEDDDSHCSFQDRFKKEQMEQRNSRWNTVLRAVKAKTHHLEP
Assay: hTRPA1 CHO Ca2+ FLIPR Tetra assay, block of cinnamaldehyde induced calcium influx
Type: cell-based
Conditions: CHO cells expressing TRPA1; compounds incubated 90 minutes at room temperature before cinnamaldehyde agonist; Hill coefficient fixed to 1.5
pIC50: −log10 of the molar value.
measured-property: pIC50

Cn1cnc2ncn(Cc3nc([C@@H]4[C@H]5C=C(c6ccc(-c7cnco7)cc6)C[C@H]54)no3)c(=O)c21 : 7.96
O=c1c2cccnc2ncn1Cc1nc([C@H]2[C@@H]3CN(c4cccc(Cl)c4)C[C@@H]32)no1 : 7.89
O=c1c2cccnc2cnn1Cc1nc([C@H]2[C@@H]3CN(c4ccccc4)C[C@@H]32)no1 : 8.07

====

Biological target: UniProt:O75762
Assay: hTRPA1 CHO Ca2+ FLIPR Tetra assay, block of cinnamaldehyde induced calcium influx
Type: cell-based
Details: read-out: hTRPA1 IC50 (90 min); CHO cells expressing TRPA1; compounds incubated 90 minutes at room temperature before cinnamaldehyde agonist; Hill coefficient fixed to 1.5
pIC50: −log10 of the molar value.
measured-property: pIC50

Cn1cnc2ncn(Cc3nc([C@@H]4[C@H]5C=C(c6ccccn6)C[C@H]54)no3)c(=O)c21 : 7.11
Cn1cnc2ncn(Cc3nc([C@H]4[C@@H]5C=C(c6cccnc6)C[C@@H]54)no3)c(=O)c21 : 6.80
Cn1cnc2ncn(Cc3nc([C@H]4[C@@H]5CN(c6cccc(-c7cnco7)c6)C[C@@H]54)no3)c(=O)c21 : 7.66
Cn1nnc2ncn(Cc3nc([C@H]4[C@@H]5CN(c6cccc(Cl)c6)C[C@@H]54)no3)c(=O)c21 : 8.44

1. Cn1cnc2ncn(Cc3nc([C@H]4[C@@H]5CN(c6cc(F)c(C#N)c(F)c6)C[C@@H]54)no3)c(=O)c21
2. Cn1cnc2cnn(Cc3nc([C@H]4[C@@H]5CN(c6cc(Cl)ccn6)C[C@@H]54)no3)c(=O)c21
Ask: // which entry has the larger pIC50 value, 1 or 2 ? // caller expects the label of the chosen entry
Reply: 1
(1: 7.74, 2: 6.82)

====

Biological target: human TRPA1 channel (Homo sapiens (Human))
Experiment: hTRPA1 CHO Ca2+ FLIPR Tetra assay, block of cinnamaldehyde induced calcium influx
Assay type: cell-based
Conditions: read-out: hTRPA1 IC50 (10 min); CHO cells expressing TRPA1; compounds incubated 10 minutes at room temperature before cinnamaldehyde agonist; Hill coefficient fixed to 1.5
measured-property: IC50 (nM)

Cn1cnc2ncn(Cc3nc([C@H]4[C@@H]5CN(c6ccc(Cl)cn6)C[C@@H]54)no3)c(=O)c21 [Example Compound 205] : 496
Cn1cnc2ncn(Cc3nc([C@H]4[C@@H]5CN(c6cncc(F)c6)C[C@@H]54)no3)c(=O)c21 [Example Compound 144] : 363
Cn1cnc2ncn(Cc3nc([C@H]4[C@@H]5CN(c6cc(F)c(Cl)c(F)c6)C[C@@H]54)no3)c(=O)c21 [Example Compound 271] : 34.7

P. O=c1c2cccnc2ncn1Cc1nc([C@H]2C[C@](O)(c3ccc(Cl)cc3)C2)no1 [Example Compound 11]
Q. Cn1cnc2ncn(Cc3nc([C@@H]4[C@H]5C=C(c6ccc7scnc7c6)C[C@H]54)no3)c(=O)c21 [Example Compound 113]
Ask: Of P and Q , whose reported IC50 is the larger number? # answer = label of selected item
Reply: P

A. Cn1c(=O)ccc2ncn(Cc3nc([C@H]4[C@@H]5CN(c6cccc(Cl)c6)C[C@@H]54)no3)c(=O)c21 [Example Compound 173]
B. O=c1c2c(Cl)ccnc2ncn1Cc1nc([C@H]2C[C@](F)(c3ccc(Cl)cc3)C2)no1 [Example Compound 121]
Ask: Pick the one with the larger IC50: A vs B Selection: enter the item's label.
Reply: B
(B: 13.1 nM, A: 3.97 nM)

====

Molecular target: human TRPA1 channel (Homo sapiens (Human), UniProt O75762)
Assay: hTRPA1 CHO Ca2+ FLIPR Tetra assay, block of cinnamaldehyde induced calcium influx
Format: cell-based
Details: read-out: hTRPA1 IC50 (10 min); CHO cells expressing TRPA1; compounds incubated 10 minutes at room temperature before cinnamaldehyde agonist; Hill coefficient fixed to 1.5
measured-property: IC50 (µM)

Recorded results for 2 compounds are shown here.
Cn1cnc2ncn(Cc3nc([C@H]4[C@@H]5Oc6c(Cl)cccc6[C@@H]54)no3)c(=O)c21 : 0.0499
Cn1cnc2ncn(Cc3nc([C@@H]4[C@H]5C=C(c6ccccc6)[C@@H](O)[C@H]54)no3)c(=O)c21 : 0.312

1. Cn1nnc2ncn(Cc3nc([C@H]4C[C@](F)(c5ccc(Cl)cc5)C4)no3)c(=O)c21
2. Cn1cnc2ncn(Cc3nc([C@H]4[C@@H]5CN(c6cccnc6)C[C@@H]54)no3)c(=O)c21
3. Cn1cnc2ncn(Cc3nc([C@H]4[C@@H]5CN(c6ccnc(F)c6)C[C@@H]54)no3)c(=O)c21
4. O=c1c2cccnc2cnn1Cc1nc([C@H]2[C@@H]3CN(c4cc(Cl)ccn4)C[C@@H]32)no1
5. Cn1cnc2ncn(Cc3nc([C@H]4[C@@H]5CN(c6cc(F)cc(Cl)c6)C[C@@H]54)no3)c(=O)c21
Ask: Sort entries by IC50 from minimum to maximum value. List the labels according to the requested ordering.
Reply: 5, 4, 1, 3, 2
(5: 0.0205 µM, 4: 0.0511 µM, 1: 0.253 µM, 3: 0.42 µM, 2: 0.778 µM)

====

Target: human TRPA1 channel (Homo sapiens (Human), UniProt O75762)
Assay: hTRPA1 CHO Ca2+ FLIPR Tetra assay, block of cinnamaldehyde induced calcium influx
Format: cell-based
Settings: read-out: hTRPA1 IC50 (90 min); CHO cells expressing TRPA1; compounds incubated 90 minutes at room temperature before cinnamaldehyde agonist; Hill coefficient fixed to 1.5
measured-property: IC50 (nM)

Example compounds with recorded IC50:
O=c1c2cccnc2cnn1Cc1nc([C@H]2C[C@](F)(c3ccc(Cl)cc3)C2)no1 [Example Compound 157] : 59
Cc1ccc(N2C[C@@H]3[C@H](C2)[C@H]3c2noc(Cn3cnc4ncn(C)c4c3=O)n2)nc1 [Example Compound 140] : 170
Cn1cc(-c2ccc(N3C[C@@H]4[C@H](C3)[C@H]4c3noc(Cn4cnc5ncn(C)c5c4=O)n3)cc2)cn1 [Example Compound 179] : 67
O=c1c2cccnc2cnn1Cc1nc([C@H]2[C@@H]3CN(c4cccc(F)c4)C[C@@H]32)no1 [Example Compound 96] : 5.1
Cn1cnc2ncn(Cc3nc([C@H]4[C@@H]5C=C(c6ccc7[nH]ncc7c6)C[C@@H]54)no3)c(=O)c21 [Example Compound 268] : 12

P. Cc1cnn2ncn(Cc3nc([C@H]4[C@@H]5CN(c6ccccc6)C[C@@H]54)no3)c(=O)c12 [Example Compound 95]
Q. O=c1c2cccnc2ncn1Cc1nc([C@H]2[C@@H]3CN(c4cc(F)ccn4)C[C@@H]32)no1 [Example Compound 154]
Ask: Hi, I'm comparing P with Q and wondering which one has the bigger number for IC50. Any idea? Identify your selection by its label.
Reply: Q
(Q: 130 nM, P: 3.5 nM)

====

Target: human TRPA1 channel (Homo sapiens (Human), UniProt O75762)
Test: hTRPA1 CHO Ca2+ FLIPR Tetra assay, block of cinnamaldehyde induced calcium influx
Type: cell-based
Details: read-out: hTRPA1 IC50 (90 min); CHO cells expressing TRPA1; compounds incubated 90 minutes at room temperature before cinnamaldehyde agonist; Hill coefficient fixed to 1.5
pIC50: −log10 of the molar value.
measured-property: pIC50

Guide cases for pIC50, answers given:
Cc1nn(C)c2ncn(Cc3nc([C@H]4[C@@H]5CN(c6cc(Cl)ccn6)C[C@@H]54)no3)c(=O)c12 : 7.37
Cn1cnc2ncn(Cc3nc([C@H]4[C@@H]5CN(C[C@@H](F)c6ccc(Cl)cc6)C[C@@H]54)no3)c(=O)c21 : 6.07

1. Cn1c(N)nc2ncn(Cc3nc([C@H]4[C@@H]5C=C(c6ccccc6)C[C@@H]54)no3)c(=O)c21
2. Cn1cnc2ncn(Cc3nc([C@@H]4[C@H]5C=C(c6cccnc6)C[C@H]54)no3)c(=O)c21
3. Cn1cnc2ncn(Cc3nc([C@H]4[C@@H]5C=C(c6ccc7scnc7c6)C[C@@H]54)no3)c(=O)c21
4. Cn1cnc2ncn(Cc3nc([C@H]4[C@@H]5CN(c6c(F)ccc(Cl)c6F)C[C@@H]54)no3)c(=O)c21
Ask: Order these by pIC50, descending, and give the full ranking. Enter labels, ranked according to the request.
Reply: 1, 4, 3, 2

====

Molecular target: human TRPA1 channel (Homo sapiens (Human), UniProt O75762)
Experiment: hTRPA1 CHO Ca2+ FLIPR Tetra assay, block of cinnamaldehyde induced calcium influx
Type: cell-based
Details: read-out: hTRPA1 IC50 (10 min); CHO cells expressing TRPA1; compounds incubated 10 minutes at room temperature before cinnamaldehyde agonist; Hill coefficient fixed to 1.5
measured-property: IC50 (nM)

Cn1cc(-c2cccc(N3C[C@@H]4[C@H](C3)[C@H]4c3noc(Cn4cnc5ncn(C)c5c4=O)n3)c2)cn1 : 38.4
Cn1cnc2ncn(Cc3nc([C@@H]4[C@H]5C=C(c6ccccc6)C[C@H]54)no3)c(=O)c21 : 21.6
Cn1cnc2ncn(Cc3nc([C@H]4[C@@H]5CN(c6ccccc6C#N)C[C@@H]54)no3)c(=O)c21 : 157
Cc1ccnc2ncn(Cc3nc([C@H]4[C@@H]5Oc6c(Cl)cccc6[C@@H]54)no3)c(=O)c12 : 22.2
Cn1cnc2c(C#N)nn(Cc3nc([C@H]4[C@@H]5CN(c6ccccc6)C[C@@H]54)no3)c2c1=O : 352

1. Cn1cnc2ncn(Cc3nc([C@H]4[C@@H]5C=C(c6cc(Cl)ccn6)C[C@@H]54)no3)c(=O)c21
2. Cn1cnc2ncn(Cc3nc([C@@H]4[C@H]5C=C(c6ccc7ccncc7c6)C[C@H]54)no3)c(=O)c21
Ask: Param pair: 1 , 2 . Output: the one whose IC50 is numerically greater. Please identify the chosen entry by its label.
Reply: 1

I. Cn1cnc2ncn(Cc3nc([C@H]4C[C@H](c5cccc(C#N)c5)C4)no3)c(=O)c21
II. Cn1c(=O)ccc2ncn(Cc3nc([C@@H]4[C@H]5C=C(c6ccccc6)C[C@H]54)no3)c(=O)c21
III. Cn1cnc2cnn(Cc3nc([C@H]4[C@@H]5CN(c6cc(Cl)ccn6)C[C@@H]54)no3)c(=O)c21
IV. Cn1cnc2ncn(Cc3nc([C@H]4[C@@H]5CN(c6ccc(-c7cnco7)cc6)C[C@@H]54)no3)c(=O)c21
V. Cc1ccnc2ncn(Cc3nc([C@H]4[C@@H]5CN(c6ccccc6)C[C@@H]54)no3)c(=O)c12
Ask: Rank descending by IC50. Rank the items, then write their labels in that order.
Reply: III, IV, I, V, II
(III: 305 nM, IV: 162 nM, I: 68.2 nM, V: 39 nM, II: 16.1 nM)
